Where do the numbers come from? From patent US20250177393A1.

Subject Of Test: MycN (Homo sapiens, UniProt P04198)
Construct: endogenous in cells; host or cells: SK-N-BE(2)
Test Summary: Degradation of MycN protein in SK-N-BE(2) cells (JESS/Western blot)
Format: cell-based
Test Settings: SKNBE2 cells, 24 h, 0.5 μM; read-out: % Degradation of MycN (SKNBE2) 24 h, 0.5 μM
Procedure: For L363 cells (suspension), 1E6 cells were plated into each well of a 6 well plate. For SK—N-BE(2) cells (adherent), 5E5 cells were plated into each well of a 6 well dish. […] All compounds were diluted to 10 mM in DMSO. […] Once an appropriate lysate concentration and antibody concentration was determined, samples were screened in the JESS technology (Protein Simple, San Jose, CA—https://www.proteinsimple.com/jess.html). […]
Measured Property: Dmax at 0.5 µM

The following molecules have reported results that may help.
| Smi | Dmax at 0.5 µM |
| --- | --- |
| CN1CC2(CCC(Nc3nccc(Nc4cc(C5CCCC5)[nH]n4)n3)CC2)C1 | 80 to 100% |
| CN1CCC(C(=O)Nc2nccc(Nc3cc(C4CC4)[nH]n3)n2)CC1 | 20 to 49% |
| CN1CC2(CCC(Nc3nccc(Nc4cc(C5CC5)[nH]n4)n3)CC2)C1 | 80 to 100% |
| CN1CC2(CCC(N(C)c3nccc(Nc4cc(C5CC5)[nH]n4)n3)CC2)C1 | 50 to 79% |
| CN(CC12CNC(C1)C2)c1nccc(Nc2cc(C3CC3)[nH]n2)n1 | 20 to 49% |

Reported Dmax at 0.5 µM, molecule c1cc(Nc2cc(C3CCCC3)[nH]n2)nc(NC2CC3(CNC3)C2)n1 : ____
< 20%

---

Listing of entries alongside the reported Dmax at 1 µM.
Subject Of Test: MycN (Homo sapiens)
Construct: endogenous in cells; host or cells: SK-N-BE(2)
Sequence (P04198 1-464): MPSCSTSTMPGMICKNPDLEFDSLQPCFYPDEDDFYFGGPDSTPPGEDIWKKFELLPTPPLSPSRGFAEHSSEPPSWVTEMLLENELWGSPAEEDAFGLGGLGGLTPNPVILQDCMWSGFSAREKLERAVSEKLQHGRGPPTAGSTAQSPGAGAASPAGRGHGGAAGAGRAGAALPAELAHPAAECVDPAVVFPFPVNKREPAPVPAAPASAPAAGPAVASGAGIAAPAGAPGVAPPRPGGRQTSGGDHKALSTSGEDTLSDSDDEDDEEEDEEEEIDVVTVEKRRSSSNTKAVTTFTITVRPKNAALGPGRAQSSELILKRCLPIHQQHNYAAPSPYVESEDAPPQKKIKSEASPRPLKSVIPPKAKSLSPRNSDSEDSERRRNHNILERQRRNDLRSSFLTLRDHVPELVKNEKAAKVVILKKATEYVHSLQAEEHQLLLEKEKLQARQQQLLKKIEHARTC
Test Summary: Degradation of MycN protein in SK-N-BE(2) cells (JESS/Western blot)
Assay type: cell-based
Test Settings: SKNBE2 cells, 24 h, 1 μM; read-out: % Degradation of MycN (SKNBE2) 24 h, 1 μM

| Smi | Subject Of Test | Test Value |
| --- | --- | --- |
| CN1CC2(CCC(N(C)c3nccc(Nc4cc(C5CC5)[nH]n4)n3)CC2)C1 | MycN (Homo sapiens) | 80 to 100% |
| F[C@H]1CNCC[C@H]1Nc1nccc(Nc2cc(C3CC3)[nH]n2)n1 | MycN (Homo sapiens) | < 20% |
| CN1CCC(C(=O)Nc2nccc(Nc3cc(C4CC4)[nH]n3)n2)CC1 | MycN (Homo sapiens) | < 20% |
| CN1CC2(CC(Nc3nccc(Nc4cc(C5CCCC5)[nH]n4)n3)C2)C1 | MycN (Homo sapiens) | 50 to 79% |

Would you mind telling me what Dmax at 1 µM value was observed for CN1CC[C@@H](Nc2nccc(Nc3cc(C4CC4)[nH]n3)n2)[C@@H](F)C1 ?
20 to 49%
